Test system: anti-PLA2R Mouse 20 Ab
Test: Kd 1/s
Where no end group is shown, it is not given here.
Quick reference: Kd of the listed items.
parameter.measured: Kd (s⁻¹)

                                  substance           system_tested  data_value
0                                 VIDSESLKK  anti-PLA2R Mouse 20 Ab     0.00014
1  Head to Tail cyclic: head to tail cyclic 28mer (SEQ ID NO: 74) (KGCFVIQSESLKKSIQAGKSVLTLENCK; head-to-tail cyclisation)  anti-PLA2R Mouse 20 Ab     9.4e-05
2                                 PIQSESLKK  anti-PLA2R Mouse 20 Ab     7.5e-05
3                                 VIQSESLKK  anti-PLA2R Mouse 20 Ab    0.000136
4                     SVLTLENCK [Peptide 2]  anti-PLA2R Mouse 20 Ab    5.32e-05
5                                 PIDSESLKK  anti-PLA2R Mouse 20 Ab    0.000143

====

Test system: anti-PLA2R mouse 20 Ab
Assay: ProteOn SPR, candidate peptide mouse 20 antibody binding kinetics
Details: peptide immobilised on GLC chip, mouse 20 Ab 5-25 nM, Langmuir 1:1
Where no end group is shown, it is not given here.
Quick reference: log10 Ka of the listed items.
parameter.measured: log10 Ka (log10 of the value in M⁻¹ s⁻¹)

In [3]: df
Out[3]:
                                  substance           system_tested  parameter_measured  data_value
0                                 PIDSESLKK  anti-PLA2R mouse 20 Ab            log10 Ka        6.25
1                     SVLTLENCK [Peptide 2]  anti-PLA2R mouse 20 Ab            log10 Ka        6.16
2                                 VIQSESLKK  anti-PLA2R mouse 20 Ab            log10 Ka        6.36
3                                 VIDSESLKK  anti-PLA2R mouse 20 Ab            log10 Ka        6.27
4                                 PIQSESLKK  anti-PLA2R mouse 20 Ab            log10 Ka        5.03
5  Head to Tail cyclic: head to tail cyclic 28mer (SEQ ID NO: 74) (KGCFVIQSESLKKSIQAGKSVLTLENCK; head-to-tail cyclisation)  anti-PLA2R mouse 20 Ab            log10 Ka        6.19

====

Quick reference: Ka of the listed items.
Test system: anti-PLA2R Mouse 20 Ab
Test: Ka 1/Ms
Where no end group is shown, it is not given here.
parameter.measured: Ka (M⁻¹ s⁻¹)

In [3]: df
Out[3]:
                                  substance  parameter_measured  data_value
0                                 PIQSESLKK                  Ka      107000
1  Head to Tail cyclic: head to tail cyclic 28mer (SEQ ID NO: 74) (KGCFVIQSESLKKSIQAGKSVLTLENCK; head-to-tail cyclisation)                  Ka    1.55e+06
2                                 VIQSESLKK                  Ka    2.27e+06
3                     SVLTLENCK [Peptide 2]                  Ka    1.43e+06
4                                 PIDSESLKK                  Ka    1.79e+06
5                                 VIDSESLKK                  Ka    1.86e+06
